# System: Human immunodeficiency virus
# procedure-details: Antiviral activity against HIV infected in human CEM cells assessed as inhibition of HIV-induced CEM giant cell formation after 4 days by microscopy
# test-parameters: Human immunodeficiency virus 1, CCRF-CEM, 96 h

{"columns": ["chem-smiles", "study-system", "EC50"],
 "data": [
  ["CC(C)(C)C(=O)OCOP(=O)(C/C=C/Cn1cnc(C(N)=O)n1)OCOC(=O)C(C)(C)C", "Human immunodeficiency virus", "> 100 µM"],
  ["CC(C)(C)C(=O)OCOP(=O)(C/C=C/Cn1ccnc(C(N)=O)c1=O)OCOC(=O)C(C)(C)C", "Human immunodeficiency virus", "> 100 µM"],
  ["CC(C)(C)C(=O)OCOP(=O)(C/C=C/Cn1cc(-c2ccccc2)nn1)OCOC(=O)C(C)(C)C", "Human immunodeficiency virus", "35.8 µM"],
  ["COC(=O)c1nccn(C/C=C/CP(=O)(OCOC(=O)C(C)(C)C)OCOC(=O)C(C)(C)C)c1=O", "Human immunodeficiency virus", "> 100 µM"]
]}

* * *

# Test system: Human immunodeficiency virus
# procedure-details: Antiviral activity against HIV infected in human CEM cells assessed as inhibition of HIV-induced CEM giant cell formation after 4 days by microscopy
# test-parameters: Human immunodeficiency virus 1, CCRF-CEM, 96 h

{"columns": ["chem-smiles", "EC50"],
 "data": [
  ["COc1cc(OC)cc(-c2cn(C/C=C/CP(=O)(OCOC(=O)C(C)(C)C)OCOC(=O)C(C)(C)C)nn2)c1", "> 100 µM"],
  ["CC(C)(C)C(=O)OCOP(=O)(C/C=C/Cn1cc(-c2ccc(OC(F)(F)F)cc2)nn1)OCOC(=O)C(C)(C)C", "55.2 µM"],
  ["CCCc1ccc(-c2cn(C/C=C/CP(=O)(OCOC(=O)C(C)(C)C)OCOC(=O)C(C)(C)C)nn2)cc1", "31.6 µM"],
  ["CCCCCCCCc1cn(C/C=C/CP(=O)(OCOC(=O)C(C)(C)C)OCOC(=O)C(C)(C)C)nn1", "> 100 µM"],
  ["CC(C)(C)C(=O)OCOP(=O)(C/C=C/Cn1cc(-c2ccc(F)cc2)nn1)OCOC(=O)C(C)(C)C", "> 100 µM"],
  ["CC(C)(C)C(=O)OCOP(=O)(C/C=C/Cn1ccnn1)OCOC(=O)C(C)(C)C", "> 100 µM"],
  ["CC(C)(C)C(=O)OCOP(=O)(C/C=C/Cn1cc(CO)nn1)OCOC(=O)C(C)(C)C", "> 100 µM"],
  ["CC(C)(C)C(=O)OCOP(=O)(C/C=C/Cn1cc(-c2cccs2)nn1)OCOC(=O)C(C)(C)C", "62.3 µM"]
]}

* * *

# Tested on: CCRF-CEM
# procedure-details: Cytotoxicity against human CEM cells
# Format: cell-based
Below is a list of entries, each paired with its recorded CC50 value.

{"columns": ["chem-smiles", "quantity-unit", "qualifier-symbol", "CC50"],
 "data": [
  ["CC(C)(C)C(=O)OCOP(=O)(C/C=C/Cn1ccc(N)nc1=O)OCOC(=O)C(C)(C)C", "µM", ">", 100],
  ["CC(C)(C)C(=O)OCOP(=O)(C/C=C/Cn1cc(-c2ccc(F)cc2)nn1)OCOC(=O)C(C)(C)C", "µM", "=", 31.6],
  ["CCCCCCCCc1cn(C/C=C/CP(=O)(OCOC(=O)C(C)(C)C)OCOC(=O)C(C)(C)C)nn1", "µM", "=", 16.8],
  ["COC(=O)c1nccn(C/C=C/CP(=O)(OCOC(=O)C(C)(C)C)OCOC(=O)C(C)(C)C)c1=O", "µM", ">", 100],
  ["CC(C)(C)C(=O)OCOP(=O)(C/C=C/Cn1ccnc(C(N)=O)c1=O)OCOC(=O)C(C)(C)C", "µM", ">", 100],
  ["CC(C)(C)C(=O)OCOP(=O)(C/C=C/Cn1cc(CO)nn1)OCOC(=O)C(C)(C)C", "µM", "=", 57.4],
  ["CC(C)(C)C(=O)OCOP(=O)(C/C=C/Cn1cnc(C(N)=O)n1)OCOC(=O)C(C)(C)C", "µM", "=", 41.8],
  ["CCCc1ccc(-c2cn(C/C=C/CP(=O)(OCOC(=O)C(C)(C)C)OCOC(=O)C(C)(C)C)nn2)cc1", "µM", "=", 55.3],
  ["CC(C)(C)C(=O)OCOP(=O)(C/C=C/Cn1ccnn1)OCOC(=O)C(C)(C)C", "µM", "=", 81.8],
  ["CC(C)(C)C(=O)OCOP(=O)(C/C=C/Cn1cc(C(=O)O)nn1)OCOC(=O)C(C)(C)C", "µM", ">", 100],
  ["COc1cc(OC)cc(-c2cn(C/C=C/CP(=O)(OCOC(=O)C(C)(C)C)OCOC(=O)C(C)(C)C)nn2)c1", "µM", "=", 68.2]
]}

Attribution: ChEMBL document CHEMBL2417392
